tgt: μ-opioid receptor (Homo sapiens)
Sequence (P35372 whole entry, species assumed): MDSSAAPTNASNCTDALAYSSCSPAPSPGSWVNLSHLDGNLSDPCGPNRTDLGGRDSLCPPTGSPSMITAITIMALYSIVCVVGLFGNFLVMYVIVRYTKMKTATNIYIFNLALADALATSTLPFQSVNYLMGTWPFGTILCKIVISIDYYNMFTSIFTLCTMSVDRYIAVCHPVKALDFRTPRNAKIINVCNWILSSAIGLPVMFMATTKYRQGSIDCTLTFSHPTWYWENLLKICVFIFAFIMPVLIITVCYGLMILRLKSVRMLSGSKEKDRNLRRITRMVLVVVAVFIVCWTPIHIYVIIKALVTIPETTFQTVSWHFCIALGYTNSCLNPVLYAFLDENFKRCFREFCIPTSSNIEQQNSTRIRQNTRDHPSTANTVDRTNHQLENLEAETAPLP
assay info: μ-opioid receptor [35S]GTPγS functional assay, U-2 OS cells
Format: biochemical
Set-up: expressed in transfected cells; host or cells: U-2 OS
experimental parameters: GTPγS μ EC50, U-2 OS cells
The following compounds are listed with their measured EC50 values.
Response body: numeric value in nM, unit text excluded.

A selection of reference data follows.
compound="CN1CC[C@@]2(C)c3cc(O)ccc3C[C@@H]1[C@@H]2NCCc1ccc(F)cc1 [Compound 101]" tgt="μ-opioid receptor (Homo sapiens)" readout_label=EC50 measured_number=3.73
compound="COc1ccc2c(c1)[C@@]1(C)CCN(C)C(C2)[C@@H]1CNC(=O)Cc1ccc(Cl)c(Cl)c1 [Compound 75]" tgt="μ-opioid receptor (Homo sapiens)" readout_label=EC50 measured_number=12.7
compound="CN(C(=O)/C=C/c1ccoc1)[C@@H]1[C@H]2Cc3ccc(O)cc3[C@@]1(C)CCN2CC1CC1 [Compound 77]" tgt="μ-opioid receptor (Homo sapiens)" readout_label=EC50 measured_number=29
compound="CN(C(=O)Nc1nc2cc(F)ccc2s1)[C@@H]1[C@H]2Cc3ccc(O)cc3[C@]1(C)CCN2CC1CC1 [Compound 134]" tgt="μ-opioid receptor (Homo sapiens)" readout_label=EC50 measured_number=1.47

In: Given the compound COc1ccc2c(c1)[C@@]1(C)CCN(C)[C@@H](C2)C1=NNC(=O)c1ccc(F)cc1 [Compound 26] , what is its reported EC50?
Out: 1190
